Source: patent US20230235047A1

Molecular target: T1, human Claudin18.2 protein (P50251802, GenScript) (human, UniProt P56856-2 1-261, limits assumed)
T1 construct: also called human CLDN18.2
Assay: SPR (Biacore T200), human Claudin18.2 amine-coupled to the chip, antibody 0-100 nM in the mobile phase, 1:1 model
Excerpt: According to the manufacturer's instructions, human Claudin18.2 (GenScrip, P50251802) was coupled to the surface of a CMS chip (GE Healthcare, 29-1496-03) using the amino coupling kit (GE Healthcare, BR-1006-33), and the remaining activation sites were blocked by injection of 1 M ethanolamine after coupling. […]
readout: kon
Answers without a unit are incomplete; give the number and then its unit.

Qu. Return reported kon. Input binder: Hz14A5 (antibody, human IgG1, kappa, V domains shown) VH: QVQLQESGPGLVKPSETLSLTCTVSGFSLNSYGVGWIRQPPGKGLEWIGVIWGDVSTNYHSVLISRVTISKDTSKNQVSLKLSSVTAADTAVYYCARITRGNAMDYWGQGTLVTVSS VL: DIVMTQSPDSLAVSLGERATINCKSSQSLLNSGNQRNYLTWYQQKPGQPPKLLIYWASTRKSGVPDRFSGSGSGTDFTLTISSLQAEDVAVYYCQNNYLFPLTFGGGTKVEIKR
Ans. 424000 M⁻¹ s⁻¹
